- MEASUREMENT TARGET: TRMT10C Mitochondrial ribonuclease P protein 1 (Homo sapiens, UniProt Q7L0Y3)
- Construct: isoTOP-ABPP experiments performed in cell lysates (in vitro); endogenous in cells; host or cells: soluble proteome of human cancer cell lines (MDA-MB-231; Ramos and Jurkat also prepared)
- Sequence (Q7L0Y3 40-403): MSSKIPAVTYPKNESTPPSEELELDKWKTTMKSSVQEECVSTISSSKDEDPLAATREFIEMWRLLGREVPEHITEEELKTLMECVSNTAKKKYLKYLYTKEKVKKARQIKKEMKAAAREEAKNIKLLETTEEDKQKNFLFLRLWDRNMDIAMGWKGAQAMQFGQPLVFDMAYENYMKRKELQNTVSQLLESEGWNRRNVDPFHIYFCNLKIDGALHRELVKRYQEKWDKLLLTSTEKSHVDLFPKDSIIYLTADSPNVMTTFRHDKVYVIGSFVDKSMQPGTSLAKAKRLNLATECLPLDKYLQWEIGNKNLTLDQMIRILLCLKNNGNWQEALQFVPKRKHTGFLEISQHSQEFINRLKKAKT
- ASSAY DETAILS: competitive isoTOP-ABPP
- Assay type: binding
- ASSAY CONTEXT: Q7L0Y3_K325; 50 uM, 231 sol, in vitro
READOUT TYPE: R value (DMSO/fragment) for probe 1 labeling

# COMPOUND, TEST VALUE
measured = [
    ("O=C(Oc1c(F)c(F)c(F)c(F)c1F)C(c1ccccc1)c1ccccc1 [fragment 20, Pentafluorophenyl 2,2-diphenylacetate]", 1.1),
    ("COc1cc(CCC(=O)Oc2c(F)c(F)c(F)c(F)c2F)cc(OC)c1OC", 1.3),
    ("Cn1cc(CC(=O)Oc2c(F)c(F)c(F)c(F)c2F)c2ccccc21", 1.1),
    ("O=C(Oc1c(F)c(F)c(F)c(F)c1F)c1cc(C(F)(F)F)cc(C(F)(F)F)c1", 0.9),
]
